# methodSummary: NCI Yeast Anticancer Drug Screen. Data for the cln2 rad14 strain (AID 165);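 further: 0% = growth equal to vehicle treated cultures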
# setupConditions: S. cerevisiae cln2 rad14 strain, at 5.0 µM (retest, dose inferred, filed as 0.5), active compounds read high
The panel holds about 79,000 compounds, 15% with a hit somewhere; the sample as a whole holds those more often. Calls of active or inactive are those of the source. No stated cut-off is given here; in the data, active means growth inhibition above about 70%; inactive means the rest.
Entries and their measured growth inhibition follow.

{"columns": ["compound", "growth inhibition"],
 "data": [
  ["CCCCOC(c1ccccc1)N1CCCCC1 (stereo not given)", "-3% (inactive)"],
  ["O=C(O)/C(=C\\c1ccc(Cl)cc1)c1ccc(C(F)(F)F)cc1[N+](=O)[O-]", "21% (inactive)"],
  ["NC(=O)C1CCCN1C(=O)C1CCCN(Cc2cc(CN3CCCC(C(=O)N4CCCC4C(N)=O)C3)cc(CN3CCCC(C(=O)N4CCCC4C(N)=O)C3)c2)C1 (stereo not given)", "-2% (inactive)"],
  ["CCCCCCCCCCCCCCC[C@@H](O)C[N+](C)(C)CCO", "42% (inactive)"],
  ["O.O.O=Cc1cc(Br)cc(Br)c1O.O=Cc1cc(Br)cc(Br)c1O.[Co]", "15% (inactive)"],
  ["CN(Cc1cnc2nc(N)nc(N)c2n1)c1ccc(C(=O)NC(CCC(=O)O)C(=O)O)c(Cl)c1Cl (stereo not given)", "-8% (inactive)"],
  ["C/C(=N/NC(=S)Nc1ccc([N+](=O)[O-])cc1)c1cccc(/C(C)=N\\NC(=S)Nc2ccc([N+](=O)[O-])cc2)n1", "19% (inactive)"],
  ["Cc1nn(C(=S)S)c(C)c1N=Nc1cccc(F)c1", "1% (inactive)"],
  ["CC1CCN(c2cc(-c3cc4ccccc4o3)oc(=O)c2C#N)CC1", "7% (inactive)"],
  ["O=[N+]([O-])c1cccc(Cl)c1C(Nc1nncs1)Nc1nncs1", "-1% (inactive)"],
  ["COC1=CC2=CCC3C(CCC4(C)C(C(C)=O)CCC34)C2(C)CC1 (stereo not given)", "-2% (inactive)"],
  ["CC(C)(C)c1cc(C(O)(C(F)(F)F)C(F)(F)F)c(Cl)c(C(O)(C(F)(F)F)C(F)(F)F)c1", "24% (inactive)"],
  ["Cc1ccc2c(c1)C(O)(c1ccccc1)C(c1ccccc1)C(c1ccccc1)O2 (stereo not given)", "59% (inactive)"],
  ["c1cc2ccc1C1NCCCN1CCN1CCCNC1c1ccc(cc1)C1NCCCN1CCN1CCCNC21 (stereo not given)", "-25% (inactive)"],
  ["Cc1ccc(NC(=O)CCCC(=O)C(C#N)c2ccccc2C)cc1C (stereo not given)", "-8% (inactive)"],
  ["CC1(C)CCC2(C(=O)O)CCC3(C)C(=CCC4C5(C)CC(O)C(O)C(C)(C(=O)O)C5CCC43C)C2C1 (stereo not given)", "99% (active)"],
  ["CCC12C=CCN3CCC4(c5cc(C(c6ccccn6)c6cc7ccccc7n6C)c(OC)cc5N(C)C4C(O)(C(=O)OC)C1OC(C)=O)C32 (stereo not given)", "-2% (inactive)"],
  ["CC(=O)OC1CCC2(C)C(=CCC3C2CCC2(C)C3CC(C(N)=O)C2C(C)=O)C1 (stereo not given)", "-3% (inactive)"],
  ["CCCN(CCC)C(=O)C(C)C", "0% (inactive)"],
  ["Oc1cccnc1CN1CCCCC1", "14% (inactive)"]
]}
